I'd appreciate it if you could supply Background (%) values for the items below.
# tested target: human IDO1 protein (Homo sapiens, UniProt P14902)
# Construct: purchased ChemPartner Lot; No. 20160706
# Sequence (P14902 whole entry): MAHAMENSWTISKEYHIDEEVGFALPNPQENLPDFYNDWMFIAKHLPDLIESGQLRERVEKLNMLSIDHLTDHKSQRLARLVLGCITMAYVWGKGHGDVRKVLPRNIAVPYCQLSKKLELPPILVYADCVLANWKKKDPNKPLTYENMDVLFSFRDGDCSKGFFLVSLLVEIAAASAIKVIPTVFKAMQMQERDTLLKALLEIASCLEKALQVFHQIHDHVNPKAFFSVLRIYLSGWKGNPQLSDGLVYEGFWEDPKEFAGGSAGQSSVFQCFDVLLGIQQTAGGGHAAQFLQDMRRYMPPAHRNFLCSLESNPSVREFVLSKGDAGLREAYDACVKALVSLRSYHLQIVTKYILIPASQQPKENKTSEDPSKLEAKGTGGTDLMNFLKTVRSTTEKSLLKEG
# assay method text: Enzymatic IDO1 assay (Absorbance 321 assay)
# Type: biochemical
# condition notes: background signal of the compound in the absorbance assay
Answers are plain numbers, in %.

1) COc1cc2c(cc1OC)C(c1ccc(Br)cc1)OCC2 (centres unmarked)	44.32
2) Nc1ncnc2sc3c(c12)CCC3	42.64
3) COc1ccc(-c2nc(=O)cc(-c3ccccc3)o2)cc1	71.51
4) Nc1ccc(Br)cc1C(O)c1ccc(Cl)cc1 (centres unmarked)	33.85
5) Cc1ccc([N+](=O)[O-])cc1NC(=O)COc1ccc2ccccc2c1Br	40.73

Hi! Can you tell me Background (%) for each of these compounds?
1. COc1ccc(C(N)=O)cc1NS(=O)(=O)c1cccc2cccnc12
2. O=C(CC1Nc2ccccc2NC1=O)NCc1ccccc1 (centres unmarked)
3. O=C1OC(c2ccccc2)c2ccc3ccccc3c21 (centres unmarked)
4. CC(=O)c1nc2ccccc2[nH]1
5. c1csc(CNCCCc2nc3ccccc3[nH]2)c1
6. CCCc1[nH]nc2c1C(c1cccc(O)c1)C(C#N)=C(N)O2 (centres unmarked)

Result:
1. 38.92
2. 36.31
3. 48.79
4. 60.63
5. 33.33
6. 30.60
